Reported %Inh is given for each of the following compounds.
Test system: PIK3CA
Test Conditions: concentration: 1 μM, replicates: in singlicate; n = 1;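 also: KINOMEscan kinase panel screen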
Quantity: %Inh

{"Smiles Notation": "CCc1nc(-c2cccc(N(C)S(=O)(=O)c3ccccc3)c2)c(-c2ccnc(Nc3ccc(N4CCN(C(C)=O)CC4)nc3)n2)s1", "Assayed Target": "PIK3CA", "Readout Value": "0%"}
{"Smiles Notation": "Fc1cccc(COc2ccc(Nc3ncnc4cc[nH]c34)cc2Cl)c1", "Assayed Target": "PIK3CA", "Readout Value": "0%"}
{"Smiles Notation": "Cc1ccc(C)c(NC(=O)NCCNc2ccnc(Nc3ccc(F)cc3)n2)c1", "Assayed Target": "PIK3CA", "Readout Value": "0%"}
{"Smiles Notation": "CC(C)(C)c1ccc(-n2cnc3c(N)ncnc32)cc1", "Assayed Target": "PIK3CA", "Readout Value": "100%"}

* * *

Test system: p38-alpha
Construct: gene MAPK14
Test Conditions: concentration: 1 μM, replicates: in singlicate; n = 1
Reported %Inh is given for each of the following molecules.

{"Molecule": "Nc1nc(-c2ccccn2)c(-c2ccnc3ccccc23)s1", "Assayed Target": "p38-alpha", "%Inh [%]": 54}
{"Molecule": "Fc1ccc(-c2ncn(CCCNCc3ccccc3)c2-c2ccncc2)cc1", "Assayed Target": "p38-alpha", "%Inh [%]": 77}
{"Molecule": "CC(=O)Nc1n[nH]c2ncc(-c3ccccc3)cc12", "Assayed Target": "p38-alpha", "%Inh [%]": 4}
{"Molecule": "Cc1cc(N2CCC(NS(=O)(=O)c3ccc(F)cc3)CC2)nc(Nc2cccc(C#N)c2)n1.O=C(O)C(F)(F)F", "Assayed Target": "p38-alpha", "%Inh [%]": 0}
{"Molecule": "OCCOCCn1ccc2ncnc(Nc3ccc(Oc4cccc(Cl)c4)c(Cl)c3)c21", "Assayed Target": "p38-alpha", "%Inh [%]": 0}
{"Molecule": "CS(=O)(=O)CCNCc1nc(-c2ccc3ncnc(Nc4ccc(OCc5cccc(F)c5)c(Cl)c4)c3c2)cs1.Cl", "Assayed Target": "p38-alpha", "%Inh [%]": 18}
{"Molecule": "Clc1cccc(-c2nc(Nc3ccncc3)c3ccccc3n2)c1", "Assayed Target": "p38-alpha", "%Inh [%]": 0}
{"Molecule": "CCCc1ccc(S(=O)(=O)NC2CCN(c3ccnc(Nc4ccc(OC)cc4)n3)C2)cc1 (stereo not drawn)", "Assayed Target": "p38-alpha", "%Inh [%]": 10}
{"Molecule": "O=C(Nc1ccccc1F)NC1CCN(c2ccnc(Nc3ccc(F)cc3)n2)C1 (stereo not drawn)", "Assayed Target": "p38-alpha", "%Inh [%]": 6}

* * *

Tested on: CDK11
Construct: gene CDK19
Test Conditions: concentration: 1 μM, replicates: in singlicate; n = 1
Quick rule for you: %Inh under 5% gets class 1, anything else gets class 0.

{"Compound": "Clc1ccc(-c2cc(-c3c[nH]nc3-c3ccccn3)ccn2)cc1 [GW681251]", "Assayed Target": "CDK11", "Category": "class 1"}
{"Compound": "CC(C)(C)OC(=O)NC1CCCN(c2cc(-c3ccc4c(N)n[nH]c4c3)nc(N)n2)C1 (centres unmarked) [GSK2286096]", "Assayed Target": "CDK11", "Category": "class 0"}
{"Compound": "COc1cc2ncnc(Nc3ccc(OCc4ccccc4Br)c(Cl)c3)c2cc1OC.Cl [GI261590]", "Assayed Target": "CDK11", "Category": "class 0"}
{"Compound": "CNc1nccc(-c2c(-c3ccc(F)cc3)ncn2CCCN2CCOCC2)n1 [SB-222516]", "Assayed Target": "CDK11", "Category": "class 0"}

Values from paper PMC5540273
